Molecular target: Follistatin (Homo sapiens) (UniProt P19883)
Sequence (P19883 whole entry, looked up): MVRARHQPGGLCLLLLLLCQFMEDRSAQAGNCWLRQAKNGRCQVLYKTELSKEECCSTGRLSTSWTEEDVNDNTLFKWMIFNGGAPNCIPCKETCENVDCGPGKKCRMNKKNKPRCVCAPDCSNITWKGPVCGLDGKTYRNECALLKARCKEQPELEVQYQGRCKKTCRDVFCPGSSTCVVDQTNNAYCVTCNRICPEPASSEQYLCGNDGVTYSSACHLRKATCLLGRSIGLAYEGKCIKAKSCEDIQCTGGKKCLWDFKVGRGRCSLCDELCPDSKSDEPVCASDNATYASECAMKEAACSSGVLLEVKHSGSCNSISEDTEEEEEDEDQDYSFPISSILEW
Assay: FST protein binding to printed compounds – biochemical, small-molecule microarray, 635/667 nm fluorescence, primary screen (AID 1132)
Settings: 635 nm fluorescence, higher = more signal
# composite z-score annotations

>  <molecule>
COc1ccccc1CN1C(=O)c2ccccc2[C@](Cc2ccccc2I)(C(=O)NC2CC2)[C@@H]1c1ccc(CO)cc1

>  <composite z-score>
1.32

$$$$
>  <molecule>
COC(=O)[C@@]1(Cc2ccc(F)cc2)[C@H]2c3cc(C(=O)N(C)C)n(Cc4ccccn4)c3C[C@H]2CN1C(=O)c1ccccc1

>  <composite z-score>
0.251

$$$$
>  <molecule>
CC(C)C(O)C1C=CC2C(=O)N(C)C(=O)C2N1N1CCCCC1 (stereo not drawn)

>  <composite z-score>
0.336

$$$$
